Entries and their pIC50
Molecular target: recombinant human ACC1 (acetyl-CoA carboxylase 1) (Homo sapiens)
Construct: NM_198834, amino acids 39—end; FLAG (C)
Assay: Human ACC1 enzyme assay (HTRF ADP detection);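 also: ADP by-product quantified by competitive HTRF immunoassay with europium cryptate anti-ADP antibody and d2-labelled ADP, read after 1 h binding at 22 °C, enzyme near 2.5 ng/µl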
Conditions: 50 μM ATP, 20 μM acetyl-CoA, 15 min pre-incubation, 20 min at 22° C.; read-out: ACC 1 IC50
# pIC50 is unitless: minus log10 of the molar concentration; print number only

Recorded pIC50, per entry:
• O=C1C(c2cc(-c3ccc(F)c(Cl)c3)ccc2Cl)C(=O)N2CCCCN12 = 5.50
• Cc1cc(C)c(-c2ccc(Cl)cc2)cc1C1=C(O)C(C)OC1=O (centres unmarked) = 6.25
• CC[C@]1(OC)CC[C@@]2(CC1)NC(=O)C(c1c(C)ccc(-c3ccc(Cl)cc3)c1C)=C2O = 6.08
• Cc1ccc(-c2ccc(F)cc2)c(C)c1C1C(=O)N2CCOCCN2C1=O = 5.62
• Cc1ccc(-c2ccc(Cl)cc2)cc1C1=C(O)C2(CCC3(CC2)OCC(C)(C)CO3)NC1=O = 6.18
• Cc1ccc(-c2ccc(Cl)cc2)cc1C1=C(O)C2(CCC(C(C)C)CC2)NC1=O (centres unmarked) = 6.47

Next molecule, pIC50 to be filled in.
For the molecule shown here, Cc1cc(C)c(-c2ccc(Cl)cc2)cc1C1=C(O)C2(CCCOC2)OC1=O (centres unmarked) , give the reported pIC50.
6.24

Origin of measurements: patent US20120129833A1
